protocolDetails: Half life in Beagle dog at 0.19 mg/kg, iv administered as 10 mins infusion or 0.32 mg/kg, po via gavage administered as cassette dose by LC-MS/MS method
Assay type: ADME, organism-based, Canis lupus familiaris
runConditions: in vivo
metric: half-life (h)
Use h as the unit, but write only the number.

Q. Which half-life is listed for COC(=O)Nc1ccc2c(c1)NC(=O)CC/C=C/C[C@H](NC(=O)/C=C/c1cc(Cl)ccc1-n1cnnn1)c1nc-2c[nH]1 ?
A. 1.2

---

testSystem: Plasma kallikrein (Homo sapiens)
Sequence (P03952 20-390 limits assumed): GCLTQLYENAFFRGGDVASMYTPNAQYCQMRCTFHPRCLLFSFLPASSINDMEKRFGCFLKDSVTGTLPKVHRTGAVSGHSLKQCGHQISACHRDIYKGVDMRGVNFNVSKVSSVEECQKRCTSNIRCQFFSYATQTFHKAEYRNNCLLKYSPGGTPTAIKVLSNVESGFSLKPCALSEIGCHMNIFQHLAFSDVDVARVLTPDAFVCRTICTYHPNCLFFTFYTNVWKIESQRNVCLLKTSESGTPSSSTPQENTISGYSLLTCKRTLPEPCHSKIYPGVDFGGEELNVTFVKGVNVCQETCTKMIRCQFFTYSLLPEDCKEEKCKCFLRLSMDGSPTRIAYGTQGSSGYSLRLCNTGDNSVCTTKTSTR
Sequence (P03952 391-638 limits assumed): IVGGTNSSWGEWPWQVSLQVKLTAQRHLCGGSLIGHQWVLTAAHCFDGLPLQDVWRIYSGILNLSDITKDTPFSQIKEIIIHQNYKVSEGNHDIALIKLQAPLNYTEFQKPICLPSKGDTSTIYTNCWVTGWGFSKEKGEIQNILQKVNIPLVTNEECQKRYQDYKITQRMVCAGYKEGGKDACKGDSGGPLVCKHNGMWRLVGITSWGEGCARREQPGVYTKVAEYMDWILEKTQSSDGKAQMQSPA
protocolDetails: Inhibition of human plasma kallikrein using H-(D)-Pro-Phe-Arg-pNA as substrate after 10 to 120 mins at 37 degC by spectrophotometric method
Quick reference for pKi among some molecules
For clarity, pKi is expressed as the negative log10 of concentration in mol/L.

smilesCode	pKi
COC(=O)Nc1ccc2c(c1)NC(=O)CCCC[C@H](NC(=O)/C=C/c1cc(Cl)ccc1-n1cnnn1)c1nc-2c[nH]1	7.15
COC(=O)Nc1ccc2c(c1)NC(=O)CC/C=C/C[C@H](NC(=O)/C=C/c1cc(Cl)ccc1-n1cnnn1)c1nc-2c[nH]1	7.80

Q. Field: pKi (Plasma kallikrein (Homo sapiens)). Entry: COC(=O)Nc1ccc(-c2nc([C@H](Cc3ccccc3)NC(=O)/C=C/c3cc(Cl)ccc3-n3cnnn3)[nH]c2Cl)cc1
A. 6.28

Source of measurements: ChEMBL document CHEMBL3992532
